assay: LNP average particle size and polydispersity by dynamic light scattering; type: physicochemical; settings: LNP with the compound as amine lipid; Expt. 10; composition ratio (mol %) 50/9/38/3 for Cmpnd 49, 50/10/38.5/1.5 for the others
Outcome measure: Z-Ave Size (nm)
# output: bare number, implied unit nm

For the compound shown here, CCCCC/C=C\C/C=C\CCCCCCCC(=O)OCC(COC(=O)CCCCCCC/C=C\C/C=C\CCCCC)OC(=O)CCC(CCCCCCCC)OC(=O)OC1CCN(C)CC1 (stereo not drawn) [Compound 92] , give the reported Z-Ave Size (nm).
67

If you can, please state the reported Z-Ave Size (nm) value of CCCCC/C=C\C/C=C\CCCCCCCC(=O)OCC(COC(=O)CCCCCCC/C=C\C/C=C\CCCCC)OC(=O)CCC(CCCCCCCC)OC(=O)NCCN1CCC1 (stereo not drawn) [Compound 93] .
103

Which value of Z-Ave Size (nm) has been reported for CCCCC/C=C\C/C=C\CCCCCCCC(=O)OCC(COC(=O)CCCCCCC/C=C\C/C=C\CCCCC)OC(=O)CCC(CCCCCCCC)OC(=O)NCCN1CCCC1 (stereo not drawn) [Compound 51] in the records?
98

----------
tested on: TTR in HUH7 cells; test: In vitro editing in HUH7 cells, LNP with Cas9 mRNA and sgRNA G000502, NGS; type: cell-based, human; conditions: Table 14; 2000 ng RNA per well, cells harvested 6 hours post-transfection, biological duplicate, G000502 target locus
Outcome measure: Editing
The answer consists of two parts: a number and, after it, its unit.

Record excerpt, results attached:
Compound | Test system | Editing
CCCCC/C=C\C/C=C\CCCCCCCC(=O)OCC(COC(=O)CCCCCCC/C=C\C/C=C\CCCCC)OC(=O)CCC(CCCCCCCCCCCC)OC(=O)NCCN1CCCC1 (centres unmarked) | TTR in HUH7 cells | 63.7%
CCCCC/C=C\C/C=C\CCCCCCCC(=O)OCC(COC(=O)CCCCCCC/C=C\C/C=C\CCCCC)OC(=O)CCC(CCCCCCCC)OC(=O)NCCN(C)CC (centres unmarked) | TTR in HUH7 cells | 49.0%
CCCCC/C=C\C/C=C\CCCCCCCC(=O)OCC(COC(=O)CCCCCCC/C=C\C/C=C\CCCCC)OC(=O)CCC(CCCCCCCC)OC(=O)NCCN1CCCC1 (centres unmarked) | TTR in HUH7 cells | 69.0%

What Editing value was documented for this compound, CCCCC/C=C\C/C=C\CCCCCCCC(=O)OCC(COC(=O)CCCCCCC/C=C\C/C=C\CCCCC)OC(=O)CCC(CCCCCCC)OC(=O)NCCN1CCCC1 (centres unmarked) ?
61.2%

Entry under review: CCCCC/C=C\C/C=C\CCCCCCCC(=O)OCC(COC(=O)CCC(OCCCCCCCC)OCCCCCCCC)COC(=O)OCCCN(CC)CC (centres unmarked) [Compound 49, reference compound] . Reported Editing?
22.6%

For the compound CCCCC/C=C\C/C=C\CCCCCCCC(=O)OCC(COC(=O)CCCCCCC/C=C\C/C=C\CCCCC)OC(=O)CCC(CCCCCC)OC(=O)NCCN1CCCC1 (racemic) , what Editing is on record?
64.3%

Report Editing for CCCCC/C=C\C/C=C\CCCCCCCC(=O)OCC(COC(=O)CCCCCCC/C=C\C/C=C\CCCCC)OC(=O)CCC(CCCCC)OC(=O)NCCN1CCCC1 (centres unmarked) please.
65.8%

Consider the compound shown here: CCCCC/C=C\C/C=C\CCCCCCCC(=O)OCC(COC(=O)CCCCCCC/C=C\C/C=C\CCCCC)OC(=O)CCC(CCCC)OC(=O)NCCN1CCCC1 (centres unmarked) What is its recorded Editing?
66.4%

----------
Readings of Encapsulation (%) for the listed molecules
test: RNA encapsulation efficiency of LNP (Ribogreen fluorescence assay); assay type: physicochemical; settings: LNP with the compound as amine lipid; Expt. 5; composition ratio (mol %) 50/10/38.5/1.5
# unit: % | format: bare number

// Encapsulation (%) lookup, key: CCCCC/C=C\C/C=C\CCCCCCCC(=O)OCC(COC(=O)CCCCCCC/C=C\C/C=C\CCCCC)OC(=O)CCC(CCCCCC)OC(=O)NCCN1CCC1 (stereo not drawn)
98

# lookup: Encapsulation (%) of CCCCC/C=C\C/C=C\CCCCCCCC(=O)OCC(COC(=O)CCCCCCC/C=C\C/C=C\CCCCC)OC(=O)CCC(CCCCCC)OC(=O)NC(C)(C)CN1CCCC1 (stereo not drawn)
98

Name the recorded Encapsulation (%) for CCCCC/C=C\C/C=C\CCCCCCCC(=O)OCC(COC(=O)CCCCCCC/C=C\C/C=C\CCCCC)OC(=O)CCC(CCCCCC)OC(=O)NC1CN(C)C1 (stereo not drawn) .
99

Which measured Encapsulation (%) value corresponds to CCCCC/C=C\C/C=C\CCCCCCCC(=O)OCC(COC(=O)CCC(OCCCCCCCC)OCCCCCCCC)COC(=O)OCCCN(CC)CC (stereo not drawn) [Compound 49, reference compound] ?
98

Requested read-out: Encapsulation (%). Entry: CCCCC/C=C\C/C=C\CCCCCCCC(=O)OCC(COC(=O)CCCCCCC/C=C\C/C=C\CCCCC)OC(=O)CCC(CCCCCC)OC(=O)NCCN1CCCCC1 (stereo not drawn)
97

Encapsulation (%) for CCCCC/C=C\C/C=C\CCCCCCCC(=O)OCC(COC(=O)CCCCCCC/C=C\C/C=C\CCCCC)OC(=O)CCC(CCCCCC)OC(=O)NCCN1CCCC1 (racemic) ?
98

----------
test: LNP average particle size and polydispersity by dynamic light scattering; assay type: physicochemical; settings: LNP with the compound as amine lipid; Expt. 4; composition ratio (mol %) 50/9/38/3 for Cmpnd 49, 50/10/38.5/1.5 for the others
PDI overview

Recorded results for 4 compounds are shown here.
Compound | PDI
CCCCC/C=C\C/C=C\CCCCCCCC(=O)OCC(COC(=O)CCCCCCC/C=C\C/C=C\CCCCC)OC(=O)CCC(CCCCCCCCCCCC)OC(=O)NCCN(C)CC (stereo not drawn) | 0.002
CCCCC/C=C\C/C=C\CCCCCCCC(=O)OCC(COC(=O)CCCCCCC/C=C\C/C=C\CCCCC)OC(=O)CCC(CCCCCCC)OC(=O)NCCN(C)CC (stereo not drawn) | 0.029
CCCCC/C=C\C/C=C\CCCCCCCC(=O)OCC(COC(=O)CCCCCCC/C=C\C/C=C\CCCCC)OC(=O)CCC(CCCCCCCCCC)OC(=O)NCCN(C)CC (stereo not drawn) | 0.015
CCCCC/C=C\C/C=C\CCCCCCCC(=O)OCC(COC(=O)CCCCCCC/C=C\C/C=C\CCCCC)OC(=O)CCC(CCCCC)OC(=O)NCCN(C)CC (stereo not drawn) | 0.017

Which PDI value is on record for CCCCC/C=C\C/C=C\CCCCCCCC(=O)OCC(COC(=O)CCC(OCCCCCCCC)OCCCCCCCC)COC(=O)OCCCN(CC)CC (stereo not drawn) [Compound 49, reference compound] ?
0.026

Fill in the blank: the reported PDI of CCCCC/C=C\C/C=C\CCCCCCCC(=O)OCC(COC(=O)CCCCCCC/C=C\C/C=C\CCCCC)OC(=O)CCC(CCCCCC)OC(=O)NCCN(C)CC (stereo not drawn) is ____.
0.027

----------
Measured pKa accompanies every entry in the list below.
experiment: pKa of amine lipid by TNS fluorescence; format: physicochemical; settings: probe TNS (6-(p-toluidino)-2-naphthalenesulfonic acid sodium salt), unformulated amine lipid in ethanol, sodium phosphate buffers -9.0
Note: the reply should be a number with no unit written.

In the examples that follow, each entry is paired with its recorded pKa.
Compound | pKa
CCCCC/C=C\C/C=C\CCCCCCCC(=O)OCC(COC(=O)CCCCCCC/C=C\C/C=C\CCCCC)OC(=O)CCC(CC(CC)CC)OC(=O)NCCN1CCCC1 (centres unmarked) [Compound 106] | 6.8
CCCCC/C=C\C/C=C\CCCCCCCC(=O)OCC(COC(=O)CCCCCCC/C=C\C/C=C\CCCCC)OC(=O)CCCC(CCCCCCCC)OC(=O)NCCN(C)CC (centres unmarked) [Compound 97] | 6.38
CCCCC/C=C\C/C=C\CCCCCCCC(=O)OCC(COC(=O)CCCCCCC/C=C\C/C=C\CCCCC)OC(=O)CCC(CCCCCC)OC(=O)OCCCN1CCCCC1 (centres unmarked) [Compound 102] | 5.16
CCCCC/C=C\C/C=C\CCCCCCCC(=O)OCC(COC(=O)CCCCCCC/C=C\C/C=C\CCCCC)OC(=O)CCC(CCCCCCC)OC(=O)NCCN1CCCC1 (centres unmarked) [Compound 76] | 6.74
CCCCC/C=C\C/C=C\CCCCCCCC(=O)OCC(COC(=O)CCCCCCC/C=C\C/C=C\CCCCC)OC(=O)CCC(CCCCCCCCCCCCCCCC)OC(=O)OCCCN1CCCC1 (centres unmarked) [Compound 19] | 5.99

For the compound CCCCC/C=C\C/C=C\CCCCCCCC(=O)OCC(COC(=O)CCCCCCC/C=C\C/C=C\CCCCC)OC(=O)CCC(CCCCC)OC(=O)NCC1CCCN1C (centres unmarked) [Compound 70] , what pKa is on record?
6.61

Fill in the blank: the reported pKa of CCCCC/C=C\C/C=C\CCCCCCCC(=O)OCC(COC(=O)CCCCCCC/C=C\C/C=C\CCCCC)OC(=O)CCC(CCCCCCCCCCCC)OC(=O)NCC1CCCN1C (centres unmarked) [Compound 9] is ____.
6.32

Would you kindly share the measured pKa for CCCCC/C=C\C/C=C\CCCCCCCC(=O)OCC(COC(=O)CCCCCCC/C=C\C/C=C\CCCCC)OC(=O)CCC(CCCCCCCC)OC(=O)OCCCN(CC)CC (centres unmarked) [Compound 32] ?
5.64

Can you share its pKa? I mean this compound: CCCCC/C=C\C/C=C\CCCCCCCC(=O)OCC(COC(=O)CCCCCCC/C=C\C/C=C\CCCCC)OC(=O)CCC(CCCCCCC)OC(=O)NCCN(C)CC (centres unmarked) [Compound 73]
6.41

What value of measured pKa is listed for CCCCC/C=C\C/C=C\CCCCCCCC(=O)OCC(COC(=O)CCCCCCC/C=C\C/C=C\CCCCC)OC(=O)CC[C@H](CCCCCC)OC(=O)NCCN1CCCC1 [Compound 89] ?
6.76

What value of pKa has been recorded for this entry: CCCCC/C=C\C/C=C\CCCCCCCC(=O)OCC(COC(=O)CCCCCCC/C=C\C/C=C\CCCCC)COC(=O)CCC(CCCCCCCC)OC(=O)NCCN(C)CC (centres unmarked) [Compound 54]
6.25
